Experiment: VSVG counterscreen qHTS to identify inhibitors of SARS-CoV-2 cell entry (AID 1645847); also: potency is read from the fitted curve at half-maximal effect; nearly all actives have a fitted effect of over 65% in size
Conditions: VSV-G pseudotyped particle entry, luciferase; series mostly up to 57.2 µM
Results filed as inconclusive are left out. Activity calls are given as the source filed them. Calls follow the shape of the full dose curve.
Observed property: Potency

Please review the entries below; each comes with its answer.
compound=COc1cc2c3c(n(CCCn4ccnc4)c(=O)c2cc1OC)-c1cc2c(cc1C3=O)OCO2 observed_property=Potency reported_result="60.7 nM (active)"
compound=C=C[C@]1(C)C[C@@H](OC(=O)CSCCN(CC)CC)[C@]2(C)[C@H](C)CC[C@]3(CCC(=O)[C@H]32)[C@@H](C)[C@@H]1O observed_property=Potency reported_result="15200 nM (active)"
compound=COc1ccc(S(=O)(=O)N2CCc3cccc(-c4ccncc4)c32)cc1 observed_property=Potency reported_result="1520 nM (active)"

Report Potency for every entry below.
1. CC(=O)N1CCN(CCOc2ccc(C3CCN(C4=Nn5c(nnc5C(F)(F)F)CC4)CC3)cc2)CC1
2. CC(CN1c2ccccc2Sc2cccnc21)N(C)C (stereo unspecified)
3. CC(C)[C@]12O[C@H]1[C@@H]1O[C@@]13[C@@]1(C)CCC4=C(COC4=O)[C@@H]1C[C@@H]1O[C@@]13C2=O
4. O=C1NC(=O)[C@@H](c2c[nH]c3ccccc23)[C@H]1c1cn2c3c(cccc13)CCC2
5. CO[C@@H]1[C@@H](O)[C@H](O)[C@@H](n2c3c(Cl)cccc3c3c4c(c5c6cccc(Cl)c6[nH]c5c32)C(=O)NC4=O)O[C@H]1CO
6. C/C=C(\C)C(=O)N[C@@H](c1ccccc1)[C@@H](O)C(=O)O[C@H]1C[C@@]2(O)[C@@H](OC(=O)c3ccccc3)[C@@H]3[C@]4(OC(C)=O)CO[C@@H]4C[C@H](O)[C@@]3(C)C(=O)[C@H](OC(C)=O)C(=C1C)C2(C)C
7. N#Cc1cccnc1N1CCN(C(=O)c2cccc(Cc3n[nH]c(=O)c4ccccc34)c2)CC1
8. CCCCC(=O)OCC(=O)[C@]1(O)Cc2c(O)c3c(c(O)c2[C@@H](O[C@H]2C[C@H](NC(=O)C(F)(F)F)[C@H](O)[C@H](C)O2)C1)C(=O)c1c(OC)cccc1C3=O

Resp:
1: 19200 nM (active); 2: 24100 nM (active); 3: 341 nM (active); 4: 1520 nM (active); 5: 857 nM (active); 6: 108 nM (active); 7: 60.7 nM (active); 8: 961 nM (active)

====

Would you kindly list max response for each of these compounds?
Experiment: qHTS Assay for Lipid Storage Modulators (AID 1519)
Conditions: Drosophila S3 cells, BODIPY lipid droplet/cell ratio, laser cytometry; measured here: lipid channel max response; cells loaded with oleic acid
Results filed as inconclusive are left out.
Give bare numbers, in %.

Please review the entries below; each comes with its answer.
compound="C=C1C2CC[C@@]3(C)C(c4ccoc4)OC(=O)C[C@@]13OC1CC(=O)C(C)(C)C(C(OC(C)=O)C(=O)OC)[C@@]12C (stereo not given in full)" observed_property="max response" reported_result=7.56
compound=O=C(Nc1ccccc1)N1CC2(CCN(C(=O)Oc3ccccc3)CC2)C1 observed_property="max response" reported_result=22.2
compound=CC(=O)N[C@@H]1CCSC1=O observed_property="max response" reported_result=-4.81

Report max response for every entry below.
1. O=C(O)c1nn(Cc2ccc(Cl)c(Cl)c2)c2ccccc12
2. C=C1C/C(=C/C)C(=O)O[C@@H]2CCN3CC=C(COC(=O)[C@]1(C)O)[C@@H]23

Resp:
16.9
10.1

All values here come from PubChem BioAssay (NCATS).
